- Target entity: UniProt Q06187
- Assay: BTK cell degradation in TMD-8 cells, HTRF assay
- Type: cell-based
- Set-up: endogenous in cells; host or cells: TMD-8 cells
- Test context: 6 h treatment, IC50 (DC50) of BTK degradation
- Procedure: TMD-8 cells were treated with compounds diluted in 0.2% DMSO, dilution was done according to the following protocol: (1) making 500× stock solution in DMSO from 1 mM by 6-fold dilution, total 8 doses were included; (2) making 2× solution in cell culture medium by transferring 0.5 μl 500× stock solution into 125 μl medium; (3) adding 15 μl of 2× solution to cells for incubation of 6 h. […]
For each record, write down the corresponding DC50.
Numbers only, in nM.

The examples below pair each entry with its known result.
cpd_smiles=COc1cc(F)c(F)cc1C(=O)NCc1ccc(-c2nn3c(c2C(N)=O)Nc2ccc(N4CCN(CC5CCN(c6ccc(N7CCC(=O)NC7=O)cc6)CC5)CC4)cc2CC3)cc1 target_entity="UniProt Q06187" assay_endpoint=DC50 reported=0.786
cpd_smiles=NC(=O)c1c(-c2ccc(Oc3ccccc3)cc2)nn2c1Nc1ccc(C3CCN(CCC4CCN(c5ccc(N6CCC(=O)NC6=O)cc5)CC4)CC3)cc1CC2 target_entity="UniProt Q06187" assay_endpoint=DC50 reported=2.01

I'd like to know its DC50. The compound in question is `Cc1cc(-c2nn3c(c2C(N)=O)Nc2ccc(N4CCN(CC5CCN(c6ccc(N7CCC(=O)NC7=O)cc6)CC5)CC4)cc2CC3)ccc1CNC(=O)c1nc(C(C)(C)C)no1`
15.6

----------
- Target entity: BTK (Homo sapiens)
- Assay: BTK cell degradation in TMD-8 cells, HTRF assay
- Assay type: cell-based
- Design: endogenous in cells; host or cells: TMD-8 cells
- Test context: 6 h treatment, IC50 (DC50) of BTK degradation
Please respond with reported DC50 for every item in the list.
Give bare numbers, in nM.

For each entry beneath this line, provide reported DC50.
1. Cc1cc(C)nc(NC(=O)c2ccc(-c3nn4c(c3C(N)=O)Nc3ccc(N5CCN(CC6CCN(c7ccc(N8CCC(=O)NC8=O)cc7)CC6)CC5)cc3CC4)cc2C)c1
2. COc1ccc(F)cc1C(=O)NCc1ccc(-c2nn3c(c2C(N)=O)Nc2ccc(N4CCN(CC5CCN(c6ccc(N7CCC(=O)NC7=O)cc6)CC5)CC4)cc2CC3)cc1
3. NC(=O)c1c(-c2ccc(C(=O)Nc3cccc(C(F)(F)F)n3)cc2)nn2c1Nc1ccc(N3CCN(CC4CCN(c5ccc(N6CCC(=O)NC6=O)cc5)CC4)CC3)cc1CC2

[0.594, 0.343, 1.32]

----------
Kindly supply the reported DC50 values for the records listed here.
- Target entity: BTK (Homo sapiens)
- Assay: BTK cell degradation in TMD-8 cells, HTRF assay
- Assay type: cell-based
- Design: endogenous in cells; host or cells: TMD-8 cells
- Test context: 6 h treatment, IC50 (DC50) of BTK degradation
Numbers only, in nM.

compound="COc1cccnc1C(=O)NCc1ccc(-c2nn3c(c2C(N)=O)Nc2ccc(N4CCN(CC5CCN(c6ccc(N7CCC(=O)NC7=O)cc6)CC5)CC4)cc2CC3)cc1C [Example C36]" assay_endpoint=DC50 reported=6.66

Batch request: DC50 per item, same order as input.
1. Cc1c(C(=O)Nc2cscn2)ccc(-c2nn3c(c2C(N)=O)Nc2ccc(N4CCN(CC5CCN(c6ccc(N7CCC(=O)NC7=O)cc6)CC5)CC4)cc2CC3)c1F [Example B94]
2. NC(=O)c1c(-c2ccc(C3(Nc4cc(C(F)(F)F)ccn4)CC3)cc2)nn2c1Nc1ccc(N3CCN(CC4CCN(c5ccc(N6CCC(=O)NC6=O)cc5)CC4)CC3)cc1CC2 [Example C16]
3. COc1ccccc1C(=O)NC(C)c1ccc(-c2nn3c(c2C(N)=O)Nc2ccc(N4CCN(CC5CCN(c6ccc(N7CCC(=O)NC7=O)cc6)CC5)CC4)cc2CC3)cc1 (centres unmarked) [Example C5]
4. NC(=O)c1c(-c2ccc(C(=O)Nc3cc(C(F)(F)F)ccn3)cc2Cl)nn2c1Nc1ccc(N3CCN(CC4CCN(c5ccc(N6CCC(=O)NC6=O)cc5)CC4)CC3)cc1CC2 [Example B24]
5. Cc1cccc(NC(=O)c2ccc(-c3nn4c(c3C(N)=O)Nc3ccc(N5CCN(C6CC(c7ccc([C@@H]8CCC(=O)NC8=O)cc7)C6)CC5)cc3CC4)c(F)c2C)n1 (some centres unmarked) [Example B68]

[0.378, 60.1, 3.82, 1.51, 2.56]

Could you report DC50 for every entry in the following list?
1. NC(=O)c1c(-c2ccc(C(=O)Nc3ccc(C(F)(F)F)cn3)cc2)nn2c1Nc1ccc(N3CCN(CC4CCN(c5ccc(N6CCC(=O)NC6=O)cc5)CC4)CC3)cc1CC2 [Example B17]
2. Cc1c(C(=O)Nc2cc(C)n(C)n2)ccc(-c2nn3c(c2C(N)=O)Nc2ccc(N4CCN(CC5CCN(c6ccc(N7CCC(=O)NC7=O)cc6)CC5)CC4)cc2CC3)c1F [Example B86]
3. NC(=O)c1c(-c2ccc(Oc3ccccc3)cc2)nn2c1Nc1ccc(NC3CCN(c4ccc5c(c4)C(=O)N(C4CCC(=O)NC4=O)C5=O)CC3)cc1CC2 (centres unmarked) [Example A8]
4. NC(=O)c1c(-c2ccc(Oc3ccccc3)cc2)nn2c1Nc1cc(NC(=O)C3CCN(CC4CCN(c5ccc6c(c5)C(=O)N(C5CCC(=O)NC5=O)C6=O)CC4)CC3)ccc1CC2 (centres unmarked) [Example A18]
5. Cc1cccc(NC(=O)c2ccc(-c3nn4c(c3C(N)=O)Nc3ccc(N5CCN(C6CC(c7ccc(N8CCC(=O)NC8=O)cc7)C6)CC5)cc3CC4)c(F)c2C)n1 (centres unmarked) [Example B64]

1. 2.19
2. 4.37
3. 2.97
4. 9.62
5. 4.85

----------
- Test system: HEK-293 cells
- Assay: HEK-293 cytotoxicity detection (CellTiter-Glo)
- Format: cell-based
- Test context: Homo sapiens, 72 h, 72 h incubation, CellTiter-Glo luminescence, read-out: HEK293
Assay endpoint: IC50

Previously resolved entries follow.
molecule=Cc1cccc(NC(=O)c2ccc(-c3nn4c(c3C(N)=O)Nc3ccc(N5CCN(C6CN(c7ccc(N8CCC(=O)NC8=O)cc7)C6)CC5)cc3CC4)c(F)c2C)n1 reported="> 10 µM"
molecule=COc1cc(F)c(F)cc1C(=O)NCc1ccc(-c2nn3c(c2C(N)=O)Nc2ccc(N4CCN(CC5CCN(c6ccc(N7CCC(=O)NC7=O)cc6)CC5)CC4)cc2CC3)cc1C reported="> 10 µM"

Please turn your attention to the following entry.
Endpoint output: IC50 of NC(=O)c1c(-c2ccc(Oc3ccccc3)cc2)nn2c1Nc1cc(C3CCN(CC4CCN(c5ccc(NC6CCC(=O)NC6=O)cc5)CC4)CC3)ccc1CC2 (stereo not drawn) . Value?
0.241 µM

----------
- Target entity: BTK (Homo sapiens)
- Assay: BTK cell degradation in TMD-8 cells, HTRF assay
- Type: cell-based
- Set-up: endogenous in cells; host or cells: TMD-8 cells
- Test context: 6 h treatment, IC50 (DC50) of BTK degradation
Assay endpoint: DC50 (nM)
Answers are plain numbers, in nM.

Consider the reported DC50 for these compounds:
cpd_smiles=NC(=O)c1c(-c2ccc(C(=O)Nc3cc(C(F)(F)F)ccn3)c(F)c2)nn2c1Nc1ccc(N3CCN(CC4CCN(c5ccc(N6CCC(=O)NC6=O)cc5)CC4)CC3)cc1CC2 target_entity="BTK (Homo sapiens)" assay_endpoint=DC50 reported=1.82
cpd_smiles=Cc1cccc(NC(=O)c2ccc(-c3nn4c(c3C(N)=O)Nc3ccc(N5CCN(C(=O)C6CCN(c7ccc(N8CCC(=O)NC8=O)cc7)CC6)CC5)cc3CC4)c(F)c2C)n1 target_entity="BTK (Homo sapiens)" assay_endpoint=DC50 reported=2.18
cpd_smiles=Cc1cccc(NC(=O)c2ccc(-c3nn4c(c3C(N)=O)Nc3ccc(N5CCN(CC6CCN(c7ccc(N8CCC(=O)N(COC(=O)C(C)(C)C)C8=O)cc7)CC6)CC5)cc3CC4)c(F)c2C)n1 target_entity="BTK (Homo sapiens)" assay_endpoint=DC50 reported=6.27

# batch: return DC50 for each of the 2 compounds below
1. COc1cc(C)ccc1C(=O)NCc1ccc(-c2nn3c(c2C(N)=O)Nc2ccc(N4CCN(CC5CCN(c6ccc(N7CCC(=O)NC7=O)cc6)CC5)CC4)cc2CC3)cc1C
2. Cc1c(C(=O)Nc2cscn2)ccc(-c2nn3c(c2C(N)=O)Nc2ccc(N4CCN(CC5CCN(c6cccc(CN7CCC(=O)NC7=O)c6)CC5)CC4)cc2CC3)c1F

[7.02, 2.72]

----------
- Target entity: BTK (Homo sapiens, UniProt Q06187)
- Sequence (Q06187 whole entry): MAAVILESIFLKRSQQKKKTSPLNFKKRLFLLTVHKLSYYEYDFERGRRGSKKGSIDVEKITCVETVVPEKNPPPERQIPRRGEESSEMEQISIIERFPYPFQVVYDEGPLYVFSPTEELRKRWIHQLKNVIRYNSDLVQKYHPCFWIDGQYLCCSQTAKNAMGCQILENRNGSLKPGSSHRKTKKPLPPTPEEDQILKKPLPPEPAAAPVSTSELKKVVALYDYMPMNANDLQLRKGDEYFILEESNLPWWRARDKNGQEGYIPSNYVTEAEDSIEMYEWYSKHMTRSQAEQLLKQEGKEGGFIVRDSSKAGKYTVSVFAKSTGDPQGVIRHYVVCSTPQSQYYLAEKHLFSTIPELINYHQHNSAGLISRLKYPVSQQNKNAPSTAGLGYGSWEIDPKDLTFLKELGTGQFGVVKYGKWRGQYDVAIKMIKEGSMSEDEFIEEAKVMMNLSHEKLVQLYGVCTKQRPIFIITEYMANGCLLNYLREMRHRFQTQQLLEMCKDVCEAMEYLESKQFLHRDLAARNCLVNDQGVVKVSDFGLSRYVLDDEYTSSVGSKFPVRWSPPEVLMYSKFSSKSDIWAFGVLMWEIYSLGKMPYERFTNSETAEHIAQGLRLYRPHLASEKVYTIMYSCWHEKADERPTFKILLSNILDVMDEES
- Assay: BTK cell degradation in TMD-8 cells, HTRF assay
- Type: cell-based
- Set-up: endogenous in cells; host or cells: TMD-8 cells
- Test context: 6 h treatment, IC50 (DC50) of BTK degradation
So I've got a bunch of molecules here, and I need their DC50 values.
Answers are plain numbers, in nM.

For every listed record, write down its DC50.
1. COc1c(F)cccc1C(=O)NCc1ccc(-c2nn3c(c2C(N)=O)Nc2ccc(N4CCN(CC5CCN(c6ccc(N7CCC(=O)NC7=O)cc6)CC5)CC4)cc2CC3)cc1C
2. Cc1c(C(=O)Nc2cc(N3CCCC3)ccn2)ccc(-c2nn3c(c2C(N)=O)Nc2ccc(N4CCN(CC5CCN(c6ccc(N7CCC(=O)NC7=O)cc6)CC5)CC4)cc2CC3)c1F
3. NC(=O)c1c(-c2ccc(Oc3ccccc3)cc2)nn2c1Nc1cc(C(=O)NC3CCN(CC4CCN(c5cc6c(cc5F)C(=O)N(C5CCC(=O)NC5=O)C6=O)CC4)CC3)ccc1CC2 (centres unmarked)
4. COc1cnccc1C(=O)NCc1ccc(-c2nn3c(c2C(N)=O)Nc2ccc(N4CCN(CC5CCN(c6ccc(N7CCC(=O)NC7=O)cc6)CC5)CC4)cc2CC3)cc1C
5. CC(Nc1cc(C(F)(F)F)ccn1)c1ccc(-c2nn3c(c2C(N)=O)Nc2ccc(N4CCN(CC5CCN(c6ccc(N7CCC(=O)NC7=O)cc6)CC5)CC4)cc2CC3)cc1 (centres unmarked)

1: 10.5; 2: 13.5; 3: 14.4; 4: 12.4; 5: 14.6

From: patent US20240246977A1
